tested on: MCF7; experiment: NCI tumour cell line growth inhibition, 48 h
Active and inactive are the calls of the source. Cut-off read from the data, not from the text of the source: active = GI50 up to about 1.1 µM and inactive = higher.
Consider the following compounds; for each one, report its GI50.

Sample answers from the record:
C/C(=N\c1c2ccccc2nc2ccccc12)N(C)C : 25.8 µM (inactive)
CC(=O)OCC1OC(OC(C)=O)C(Nc2ncc(-c3ccc(C)cc3)s2)C(OC(C)=O)C1OC(C)=O (centres undefined) : 20.3 µM (inactive)
CCOC(=O)NC(C(=O)OCC)(N1CCN(c2cc3c(cc2F)c(=O)c(C(=O)O)cn3CC)CC1)C(F)(F)F (centres undefined) : > 100 µM (inactive)
CCN(CC)CCN(/C(=N/c1ccccc1)N1CCCCC1)c1ccccc1 : 5.53 µM (inactive)

Batch: GI50 for all items listed.
1. COc1cc(-c2cc(=O)c3cc4c(cc3[nH]2)OCO4)cc(OC)c1O
2. CC(=O)c1cccc(Nc2c3ccccc3nc3occc23)c1
3. S=c1[nH]c(Cl)cc2nc(Cl)cn12
4. Cc1cc(C)n(CN(Cn2nc(C)cc2C)c2ccccc2)n1
5. CC(NC(=O)c1ccc(OP(=O)(OCc2ccc([N+](=O)[O-])o2)N(C)CCCCCl)cc1)c1ccc(OCC2CCCCC2)c(C(N)=O)c1 (centres undefined)

["> 10 µM (inactive)", "3.94 µM (inactive)", "3.13 µM (inactive)", "23.1 µM (inactive)", "2.77 µM (inactive)"]

----------
test system: BT-549; experiment: NCI tumour cell line growth inhibition, 48 h
The source made the active and inactive calls. Cut-off read from the data, not from the text of the source: active = GI50 up to about 1.1 µM and inactive = higher.
measured parameter: GI50

Batch: GI50 for all items listed.
1. CC(=O)/C(=C/N1C(=O)CC(=O)NC1=S)C(=O)Nc1ccccc1C
2. CCOC(=O)c1c2c(n(C)c1-c1ccccc1)C(=O)C(C)=CC2=O
3. CCc1cc2c(oc3cc4ccccc4cc32)c(=O)[nH]1
4. O=C(Nc1ccc(C(F)(F)F)cc1)NC(F)(F)F
5. COc1ccccc1Cn1nc(OC)c2cc([N+](=O)[O-])ccc21
6. Cc1nnc2n1-c1ccccc1N(Cc1ccccc1)CC2

> 100 µM (inactive)
13.2 µM (inactive)
> 10 µM (inactive)
> 100 µM (inactive)
16.9 µM (inactive)
22.1 µM (inactive)

----------
tested on: K562; experiment: NCI tumour cell line growth inhibition, 48 h
Calls of active or inactive are those of the source. Cut-off read from the data, not from the text of the source: active = GI50 up to about 1.1 µM and inactive = higher.
Parameter call: string, one of active, inactive

Worked cases, answers included:
COC(=O)C1=C(C(=O)OC)c2cc(OC)ccc2C(C(=S)N(C)C)S1 (stereo unspecified) : inactive
CN1CC(=O)N(C)c2ncn(Cc3ccccc3)c2C1=O : inactive
Cc1cccc(-c2cc(O)c3c(C)ccnc3n2)c1 : active

Hi, do you know how "O=[N+]([O-])C(=C1NCCN1)C(Cl)=C(Cl)Cl" came out in this test?
inactive

Hi, do you know how COC(=O)C1C(O)CC(c2ccccn2)N(Cc2ccccc2)C1c1ccccn1 (stereo unspecified) came out in this test?
inactive

Hi, do you know how "CC1=NN(c2ccccc2)C(=O)C1=C1SCCCS1" came out in this test?
inactive

Hi, do you know how "Cc1oc2nc(N(C)C)n3cnnc3c2c1C" came out in this test?
inactive

Hi, do you know how "C=CC[C@]12C[C@@H](C(=O)OC)N(C(=O)OC)[C@H]1N(S(=O)(=O)c1ccccc1)c1ccccc12" came out in this test?
inactive

Hi, do you know how "COc1cc2nc(-c3cccs3)nc(N3C(c4cc(OC)c(OC)c(OC)c4)=NNC(=O)c4ccccc43)c2cc1OC" came out in this test?
inactive

Hi, do you know how "c1ccc2c(c1)c1ccccc1n2Cn1c2ccccc2c2ccccc21" came out in this test?
inactive

Hi, do you know how "CC(=O)N/N=C1\NC(=O)C[C@H]2[C@@H]3CC=C4C[C@@H](OC(C)=O)CC[C@]4(C)[C@H]3CC[C@]12C" came out in this test?
inactive

Hi, do you know how "COC1=CC(=O)c2c(O)c3c(c(O)c2C1=O)C[C@](C)(O)C[C@@H]3O" came out in this test?
inactive

Hi, do you know how COc1cc(C2c3[nH]c4ccccc4c3[C@@H](Nc3ccc(C#N)cc3)[C@H]3COC(=O)N23)cc(OC)c1O (stereo partly specified) came out in this test?
active

Hi, do you know how "CN(C)Cc1ccc(-c2cc3onc(-c4ccccc4)c3c(=O)n2C)cc1" came out in this test?
inactive

Hi, do you know how "CC(C)c1cc(C(C)C)c(B(c2ccccc2)c2ccccc2)c(C(C)C)c1Br" came out in this test?
inactive

Hi, do you know how N#Cc1c(-c2ccc(Cl)cc2)c2c(n(C3OC(CO)C(O)C(O)C3O)c1=S)CCC2 (stereo unspecified) came out in this test?
inactive

----------
system: MDA-N; assay: NCI tumour cell line growth inhibition, 48 h
The source made the active and inactive calls. No stated cut-off is given here; in the data, active = GI50 up to about 1.1 µM and inactive = higher.
Parameter call: string, one of active, inactive

Worked cases, answers included:
CCOC(=O)C1C(c2ccc(OC)cc2)c2c(nn(-c3ccccc3)c2O)CC1(O)OCC (stereo not drawn) : inactive
COCO[C@@H]1C[C@H]2C(=O)Nc3ccccc3C(=O)N2C1 : inactive
Cc1cccc(-c2cc(O)c3c(C)ccnc3n2)c1 : active

Hi, do you know how "CN(C)c1ccc(/C=c2/c3ccccc3n3c2cc(C24CC5CC(CC(C5)C2)C4)[n+]3C)cc1" came out in this test?
active

Hi, do you know how CNc1cc2c(c3ccccc13)C(CCl)CN2C(=O)c1cc2cc(OC)c(OC)c(OC)c2[nH]1 (stereo not drawn) came out in this test?
active

Hi, do you know how "CCCCc1c(N(C)C)c(OC(C)=O)c(-c2cn(C)c3ccccc23)oc1=O" came out in this test?
inactive

Hi, do you know how "CN(C)Cc1ccc(-c2cc3onc(-c4ccccc4)c3c(=O)n2C)cc1" came out in this test?
inactive

Hi, do you know how O=C(O)C1C2CCC(C2)C1c1ccccc1 (stereo not drawn) came out in this test?
inactive

Hi, do you know how "N/C(=N\Nc1ccc(C(=O)O)cc1)c1cnccn1" came out in this test?
inactive

Hi, do you know how "CSC1=N/C(=C\c2ccccc2)C(=O)N1CN1CCCCC1" came out in this test?
inactive

Hi, do you know how "CCCCc1ccc(-n2sc3ncccc3c2=O)cc1" came out in this test?
inactive

Hi, do you know how "CN(C)NC1=NS(=O)(=O)c2cc3c(=O)n(C)[nH]c3cc2S1" came out in this test?
inactive

----------
system: NCI-H460; assay: NCI tumour cell line growth inhibition, 48 h
Activity calls are given as the source filed them. No stated cut-off is given here; in the data, active = GI50 up to about 1.1 µM and inactive = higher.
measured parameter: GI50

O=S1(=O)NN=C(NCc2ccc(Cl)c(Cl)c2)c2ccccc21 : 95.3 µM (inactive)
COc1ccc(S(=O)(=O)NC(C)C(=O)O)cc1 (stereo not drawn) : > 100 µM (inactive)

We next turn to a different molecule, shown below.
The measured GI50 associated with "O=C1C=CC(=O)N1c1ccc2c(c1)Cc1cc(NC(=O)C(F)(F)F)ccc1-2" reads > 100 µM (inactive)

----------
tested on: NCI-H226; assay: NCI tumour cell line growth inhibition, 48 h
The source made the active and inactive calls. No stated cut-off is given here; in the data, active = GI50 up to about 1.1 µM and inactive = higher.
Parameter call: string, one of active, inactive

Worked cases, answers included:
C=CC[C@]12C[C@@H](C(=O)OC)N(C(=O)OC)[C@H]1N(S(=O)(=O)c1ccccc1)c1ccccc12 : inactive
CNc1cc2c(c3ccccc13)C(CCl)CN2C(=O)c1cc2cc(OC)c(OC)c(OC)c2[nH]1 (stereo unspecified) : active
CC(C)CCCC(C)[C@H]1CCC2[C@@H]3CCC4Cc5nc6c(nc5C[C@]4(C)C3CC[C@@]21C)CC1CC[C@@H]2C(C[C@@H](O)[C@@]3(C)C2C[C@@H]2OC4(CCC(C)CO4)C(C)[C@@H]23)[C@@]1(C)C6 (stereo partly specified) : inactive
CCCCc1ccc(-n2sc3ncccc3c2=O)cc1 : inactive
Cc1nnc2n1N=C(c1cc(F)c(Cl)cc1Cl)/C(=C/c1ccc3c(c1)OCO3)S2 : inactive

Could you now consider this next compound?
Hi, do you know how CC1OC2OC3C(OCC(O)C3O)OC(=O)[C@]34CCC(C)(C)CC3C3=CCC5[C@@]6(C)C[C@H](O)[C@H](OC7OC(CO)C(O)C(O)C7OC7OCC(OC(=O)CC(C)(O)CC(=O)OC1C(OC1OC(CO)C(O)C(O)C1O)C2O)C(O)C7O)[C@@](C)(CO)C6CC[C@@]5(C)[C@]3(C)CC4 (stereo partly specified) came out in this test?
inactive

----------
Consider the following compounds; for each one, report its GI50.
system: NCI/ADR-RES; assay: NCI tumour cell line growth inhibition, 48 h
Calls of active or inactive are those of the source. No stated cut-off is given here; in the data, active = GI50 up to about 1.1 µM and inactive = higher.

Sample answers from the record:
N#Cc1c(-c2ccc(Cl)cc2)c2c(n(C3OC(CO)C(O)C(O)C3O)c1=S)CCC2 (stereo unspecified) : 61.2 µM (inactive)
COc1ccc2nc3n(c2c1)C(c1c(F)cccc1Cl)SC3 (stereo unspecified) : 23.3 µM (inactive)
CSc1ncc2c(C#N)c3ccccn3c(=O)c2n1 : > 100 µM (inactive)
CN(C)CCNC(=O)c1cccc2c1Nc1ccccc1S2 : 16.2 µM (inactive)
C=C(Br)CNC(=O)Nc1ccc(Cl)c(Cl)c1 : 16.6 µM (inactive)

We next turn to a different compound, shown below.
The measured GI50 associated with "O=C(Nc1ccc(C(F)(F)F)cc1)NC(F)(F)F" reads > 100 µM (inactive)
